# System: rabbit platlets
# method.notes: aggregation of rabbit platelets (AC50)
# Format: cell-based
# assay.conditions: Oryctolagus cuniculus, Platelet, 50% aggregation, only compounds structurally similar to PAF, read-out: AC50 (concentration of the test compound to obtain 50% aggregation of rabbit platlets)
Quick reference: AC50 of the listed items.

molecule | target.desc | unit.label | value.operator | AC50
CCCCCCCCCCCCCCCCOCC(COC(C)=O)COP(=O)([O-])OCC[N+](C)(C)C (stereo not shown) [Example 14] | rabbit platlets | nM | = | 340
CCCCCCCCCCCCCCCCOCC(C)(O)COP(=O)([O-])OCC[N+](C)(C)C (stereo not shown) [Example 12] | rabbit platlets | nM | > | 100000
CCCCCCCCCCCCCCCCOCC(O)(COC(C)=O)COP(=O)([O-])OCC[N+](C)(C)C (stereo not shown) [Example 15] | rabbit platlets | nM | = | 70
CCCCCCCCCCCCCCCCOCC(CF)COP(=O)([O-])OCC[N+](C)(C)C (stereo not shown) [Example 16] | rabbit platlets | nM | = | 2200

---

Quick reference: AC50 of the listed items.
# System: rabbit platlets
# method.notes: aggregation of rabbit platelets (AC50)
# Format: cell-based
# assay.conditions: Oryctolagus cuniculus, Platelet, 50% aggregation, only compounds structurally similar to PAF, read-out: AC50 (concentration of the test compound to obtain 50% aggregation of rabbit platlets)

molecule | AC50 [µM]
CCCCCCCCCCCCCCCCOCC(CO)COP(=O)([O-])OCC[N+](C)(C)C (stereo not drawn) [Example 17] | 24
C=C(COCCCCCCCCCCCCCCCC)COP(=O)([O-])OCC[N+](C)(C)C [Example 13] | 1.3
CCCCCCCCCCCCCCCCOCC(O)(CO)COP(=O)([O-])OCC[N+](C)(C)C (stereo not drawn) [Example 18] | 38

Hello, the source for this data is patent US4761404A, in case you need it.
